Data provenance is patent US20250154686A1.

tested-system: Bcl-2 protein (Recombinant Human Bcl-2 Protein) (Homo sapiens, UniProt P10415)
Construct: purchased Novus Biologicals NBP2-34889
Sequence (P10415 whole entry): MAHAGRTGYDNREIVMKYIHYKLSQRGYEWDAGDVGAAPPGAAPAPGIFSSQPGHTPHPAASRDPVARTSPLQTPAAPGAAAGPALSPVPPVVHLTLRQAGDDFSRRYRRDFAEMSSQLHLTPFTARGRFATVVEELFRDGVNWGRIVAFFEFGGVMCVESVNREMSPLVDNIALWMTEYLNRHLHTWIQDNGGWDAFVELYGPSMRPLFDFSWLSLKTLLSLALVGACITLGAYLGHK
assay-explanation: AS-MS evaluation of binding of the Example 4 mixture library (1200 compounds/well) to Bcl-2, ASMS ratio (%)
reported-conditions: AS-MS, Example 4 mixture library, Bcl-2, replicate n = 1
recorded-metric: ASMS ratio (%) n = 1

A selection of reference data follows.
| compound | recorded-metric | units | number |
| --- | --- | --- | --- |
| CCOc1cncc(-c2ccccc2CCC(=O)N2CCN(c3ccc(C(=O)NS(=O)(=O)c4ccc(NCCSc5ccccc5)c(C(F)(F)F)c4)nn3)CC2)c1 [Compound B2R012-01] | ASMS ratio (%) n = 1 | % | 15.8 |
| CCOc1cccc(-c2cc(CN3CCN(c4ccc(C(=O)NS(=O)(=O)CCC(F)(F)F)cc4)CC3)cc(OC(C)C)c2)c1 [Compound B2N057-01] | ASMS ratio (%) n = 1 | % | 0.0 |
| CCOc1cncc(-c2ccccc2CCC(=O)N2CCN(c3ccc(C(=O)NS(=O)(=O)CCC(F)(F)F)cc3)CC2)c1 [Compound B2N034-01] | ASMS ratio (%) n = 1 | % | −0.2 |
| CCOc1cncc(-c2cc(CN3CCN(c4ccc(C(=O)NS(=O)(=O)CCC(F)(F)F)nn4)CC3)cc(OC(F)(F)F)c2)c1 [Compound B2N090-01] | ASMS ratio (%) n = 1 | % | 0.0 |
| CCOc1cncc(-c2csc(CN3CCN(c4ccc(C(=O)NS(=O)(=O)C(C)(C)C)nn4)CC3)c2)c1 [Compound B2L094-01] | ASMS ratio (%) n = 1 | % | 0.2 |
| CCOc1cccc(-c2ccccc2CN2CCN(c3ccc(C(=O)NS(=O)(=O)c4ccc(NCCSc5ccccc5)c(C(F)(F)F)c4)cc3)CC2)c1 [Compound B2R045-01] | ASMS ratio (%) n = 1 | % | 4.8 |
| CCOc1cncc(-c2cc(CN3CCN(c4ccc(C(=O)NS(=O)(=O)CCC(F)(F)F)nn4)CC3)cc(OCC)c2)c1 [Compound B2N082-01] | ASMS ratio (%) n = 1 | % | 2.5 |

P. CCOc1cccc(-c2cc(OC)c(CN3CCN(c4ccc(C(=O)NS(=O)(=O)CCC(F)(F)F)nn4)CC3)c(OC)c2)c1 [Compound B2N085-01]
Q. CCOc1cncc(-c2ccc(C(=O)N3CCN(c4ccc(C(=O)NS(=O)(=O)CCC(F)(F)F)cc4)CC3)cc2C)c1 [Compound B2N026-01]
q: Quick check, higher ASMS ratio (%) n = 1 between P and Q ? Please identify the chosen entry by its label.
a: P
